The origin of these recorded values is the supplement of paper PMC10849652.

- experimental system: YWHAB (UniProt P31946)
- Sequence (P31946 whole entry, looked up): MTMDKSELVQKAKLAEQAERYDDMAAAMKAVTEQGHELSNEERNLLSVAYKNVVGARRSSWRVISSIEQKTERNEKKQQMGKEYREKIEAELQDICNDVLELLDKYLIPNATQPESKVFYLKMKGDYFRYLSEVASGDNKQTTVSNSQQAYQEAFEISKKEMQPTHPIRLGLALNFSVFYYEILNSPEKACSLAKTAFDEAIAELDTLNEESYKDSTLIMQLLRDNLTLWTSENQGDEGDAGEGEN
- test protocol: log2 fold change, soluble protein after heating vs DMSO (PISA); higher = thermal stabilisation; K562 cells, 10 uM, 30 min; active = over 0.2 and 3.5 SD of the protein, either way, in both replicates (recomputed)
The full data set covers some 7,900 targets. This sample favours those with a hit. About 0.6% of all pairs of compound and target were hits.
readout name: log2 fold change
Number only, please.

The following molecules have reported results that may help.
molecule | log2 fold change
CCCc1cc(C)[nH]c(=O)c1CNC(=O)c1cc(-c2ccnc(N3CCN(C)CC3)c2)cc2c1cnn2C(C)C | -0.031
O=C1NC(=O)C(c2cnc3ccccn23)=C1c1cn2c3c(cc(F)cc13)CN(C(=O)N1CCCCC1)CC2 | -0.04
Cn1cncc1[C@@](N)(c1ccc(Cl)cc1)c1ccc2c(c1)c(-c1cccc(Cl)c1)cc(=O)n2C | 0.059

Name the recorded log2 fold change for Cn1cc(-c2ccc3nnc(C(F)(F)c4ccc5ncccc5c4)n3n2)cn1 .
-0.037

Record: Cn1c2cc(S(C)=O)sc2c2cnn(Cc3cccc(N)c3)c(=O)c21 (stereo not given)
-0.068

---

- experimental system: ZER1 (UniProt Q7Z7L7)
- Sequence (Q7Z7L7 whole entry, looked up): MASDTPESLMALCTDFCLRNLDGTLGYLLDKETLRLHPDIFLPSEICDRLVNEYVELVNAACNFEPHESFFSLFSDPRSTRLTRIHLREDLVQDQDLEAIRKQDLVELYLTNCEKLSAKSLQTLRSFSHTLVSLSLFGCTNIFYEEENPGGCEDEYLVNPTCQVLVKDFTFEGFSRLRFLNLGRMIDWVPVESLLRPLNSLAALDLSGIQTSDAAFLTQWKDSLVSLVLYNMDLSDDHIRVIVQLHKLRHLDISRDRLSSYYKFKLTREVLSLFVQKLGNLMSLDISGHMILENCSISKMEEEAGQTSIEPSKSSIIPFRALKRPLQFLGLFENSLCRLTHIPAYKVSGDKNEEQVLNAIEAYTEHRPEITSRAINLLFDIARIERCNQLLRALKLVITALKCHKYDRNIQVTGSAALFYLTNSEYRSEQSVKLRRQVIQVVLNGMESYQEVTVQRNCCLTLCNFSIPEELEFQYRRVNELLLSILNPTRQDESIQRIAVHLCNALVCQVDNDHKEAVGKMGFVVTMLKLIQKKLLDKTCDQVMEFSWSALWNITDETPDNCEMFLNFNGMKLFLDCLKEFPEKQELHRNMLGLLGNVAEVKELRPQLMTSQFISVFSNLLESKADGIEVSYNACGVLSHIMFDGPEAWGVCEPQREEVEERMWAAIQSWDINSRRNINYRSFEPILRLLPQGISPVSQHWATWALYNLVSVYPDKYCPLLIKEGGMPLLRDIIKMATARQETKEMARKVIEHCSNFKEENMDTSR
- test protocol: log2 fold change, soluble protein after heating vs DMSO (PISA); higher = thermal stabilisation; K562 cells, 10 uM, 30 min; active = over 0.2 and 3.5 SD of the protein, either way, in both replicates (recomputed)
Targets with a hit are over-represented here; the source holds about 7,900 in all. About 0.6% of all pairs of compound and target were hits.
Below, each entry is listed alongside its reported log2 fold change.
Number only, please.

The following compounds have reported results that may help.
smiles data | result
CC[C@@H]1C(=O)N(C)c2cnc(Nc3ccc(C(=O)N[C@H]4CC[C@H](N5CCN(CC6CC6)CC5)CC4)cc3OC)nc2N1C(C)C | 0.009
NC(=O)c1cnc(N[C@@H]2CCCC[C@@H]2N)nc1Nc1cccc(-n2nccn2)c1 | -0.001
NCC(=O)Nc1ccc(-n2nc(C(F)(F)F)cc2-c2ccc3c(ccc4ccccc43)c2)cc1 | 0.03

Name the recorded log2 fold change for CN1CC[C@H](c2c(O)cc(O)c3c(=O)cc(-c4ccccc4Cl)oc23)[C@H](O)C1 .
-0.131

Record: Oc1cc(-c2nc(-c3ccccc3)[nH]c2-c2ccncc2)ccc1Cl
0.012

Record: C/C(=N\NC(=O)c1cccc(S(=O)(=O)N2CCOCC2)c1)c1cc(Cl)ccc1O
0.019

Record: CC(C)N(C[C@H]1O[C@@H](n2cnc3c(N)ncnc32)[C@H](O)[C@@H]1O)[C@H]1C[C@@H](CCc2nc3cc(C(C)(C)C)ccc3[nH]2)C1
0.098

---

- experimental system: YBX1 (UniProt C9J5V9)
- test protocol: log2 fold change, soluble protein after heating vs DMSO (PISA); higher = thermal stabilisation; K562 cells, 10 uM, 30 min; active = over 0.2 and 3.5 SD of the protein, either way, in both replicates (recomputed)
About 7,900 targets were measured; listed, in parts, are those with a hit and a random draw of the rest. About 0.6% of all pairs of compound and target were hits.
Label true (1) for high-side log2 fold change (at or above -0.03) and false (0) for low-side log2 fold change (below it).

Completed entries (count: 4):
smiles data | experimental system | qualitative label
COc1cc(C(=O)O)ccc1NC(=O)[C@@H]1N[C@@H](CC(C)(C)C)[C@](C#N)(c2ccc(Cl)cc2F)[C@H]1c1cccc(Cl)c1F | YBX1 (UniProt C9J5V9) | true (1)
Cc1ccc(-n2nc(C(C)(C)C)cc2NC(=O)Nc2ccc(OCCN3CCOCC3)c3ccccc23)cc1 | YBX1 (UniProt C9J5V9) | true (1)
NC(=O)c1cnc(N[C@@H]2CCCC[C@@H]2N)nc1Nc1cccc(-n2nccn2)c1 | YBX1 (UniProt C9J5V9) | false (0)
O=C1NC(=NCc2cccs2)S/C1=C\c1ccc2ncccc2c1 | YBX1 (UniProt C9J5V9) | true (1)

Item C[C@@H](Oc1cc(-c2cnn(C3CCNCC3)c2)cnc1N)c1c(Cl)ccc(F)c1Cl with log2 fold change of -0.03 or above?
true (1)

Record: O=C(Nc1nc2ccccc2n1CCN1CCOCC1)c1cccc([N+](=O)[O-])c1
true (1)

Record: CC(=O)c1cnc2ccc(-c3cc(Cl)c(O)c(Cl)c3)nc2c1N[C@H]1CC[C@H](CN(C)C)CC1
false (0)

Record: C/C(=N\NC(=O)c1cccc(S(=O)(=O)N2CCOCC2)c1)c1cc(Cl)ccc1O
true (1)

Record: O=C1c2ccccc2-c2n[nH]c3cccc1c23
false (0)
